SYSTEM: P. falciparum apicoplast DNA polymerase (Pf-apPOL) (Plasmodium falciparum, UniProt Q8ILY1)
Sequence (Q8ILY1 entry or part of it): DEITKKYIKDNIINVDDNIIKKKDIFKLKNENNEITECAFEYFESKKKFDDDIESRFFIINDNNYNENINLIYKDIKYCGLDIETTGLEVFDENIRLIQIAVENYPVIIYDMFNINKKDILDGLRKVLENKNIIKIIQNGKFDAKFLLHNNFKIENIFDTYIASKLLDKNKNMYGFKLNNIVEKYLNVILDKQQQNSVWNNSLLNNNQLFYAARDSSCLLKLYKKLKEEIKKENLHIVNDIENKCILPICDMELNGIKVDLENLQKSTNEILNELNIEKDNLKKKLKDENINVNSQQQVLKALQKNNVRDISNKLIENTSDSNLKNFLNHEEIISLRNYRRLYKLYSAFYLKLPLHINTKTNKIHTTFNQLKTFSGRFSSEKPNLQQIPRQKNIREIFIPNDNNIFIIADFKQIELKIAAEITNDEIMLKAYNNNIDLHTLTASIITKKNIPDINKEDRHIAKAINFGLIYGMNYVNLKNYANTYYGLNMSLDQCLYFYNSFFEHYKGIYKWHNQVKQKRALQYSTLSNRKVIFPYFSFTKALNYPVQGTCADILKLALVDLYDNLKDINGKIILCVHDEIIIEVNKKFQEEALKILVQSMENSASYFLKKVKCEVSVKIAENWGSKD
METHOD_DESCRIPTION: Fluorescence-based high-throughput DNA polymerase assay (molecular beacon), primary screen and dose-response
Type: biochemical
MEASUREMENT_SETUP: DRC-1; read at 90'; concentration 10
% inhibition Apol 90' 10 overview
MEASURED_PARAMETER: % inhibition Apol 90' 10

>>> print(df.to_string())
                                   compound        measured_parameter  experimental_value
0  CC(=O)OCC1=C(C(=O)[O-])N2C(=O)[C@@H](NC(=O)Cc3cccs3)[C@H]2SC1.[Na+]  % inhibition Apol 90' 10              6.863%
1  Cn1nc(-c2nnc(-c3ccccc3F)o2)c2c1CCN(C(=O)c1ccccc1Cl)C2  % inhibition Apol 90' 10                 46%
2  O=C(CCc1csc(NC(=O)Nc2ccccc2)n1)Nc1nc2ccccc2s1  % inhibition Apol 90' 10            25.6988%
3  Cc1cccc(-c2noc(C(=O)NNC(=O)C(Cl)(Cl)Cl)n2)c1  % inhibition Apol 90' 10              4.634%
4  N#Cc1c(O)nc(N2CCCCC2)nc1-c1ccc2c(c1)OCO2  % inhibition Apol 90' 10            42.1383%
5  Cn1nc(-c2nc(-c3ccccc3)no2)c2c1CCN(C(=O)Cc1cccs1)C2  % inhibition Apol 90' 10                 21%
6  Cc1ccc(N2CCC(NC(=O)Cc3cccs3)C2=O)cc1C (centres unmarked)  % inhibition Apol 90' 10            19.3171%
7  CC(C)CC(C(=O)O)N1C(=O)C2C3C=CC(C2C1=O)C1C(=O)N(C(CC(C)C)C(=O)O)C(=O)C31 (centres unmarked)  % inhibition Apol 90' 10            18.2004%
